tested on: U2OS; assay: drug sensitivity score (DSS) for viability; higher = more toxic; extreme values may be limits of the assay; details: 72 h
# Lookup of reported drug sensitivity score keyed by entry
Please give the numeric answer without any surrounding text.

Worked examples follow.
COc1ccc(-c2cc(=O)c3c(O)cc(O[C@@H]4O[C@H](CO[C@@H]5O[C@@H](C)[C@H](O)[C@@H](O)[C@H]5O)[C@@H](O)[C@H](O)[C@H]4O)cc3o2)cc1O :: 0
Cc1ccc(/C=C2\CNC/C(=C\c3ccc(C)cc3)C2=O)cc1 :: 5.1

Q: State its drug sensitivity score on U2OS: O=S(=O)(Cc1ccccc1)Nc1ccc(-c2ccc3c(cnn3-c3ccc(F)cc3)c2)c(C(F)(F)F)c1
A: 0

Q: Notebook entry, U2OS assay: drug sensitivity score of CNC(=O)c1cc(COc2nnc(Nc3ccc(Cl)cc3)c3ccoc23)ccn1 = ?
A: 0

* * *

# cell viability per entry
tested on: HepG2; assay: cell viability relative to DMSO; higher = less toxic; conditions: 72 h; 10000 nM
Give the value, in units of %, as a plain number.

Study these solved cases before continuing.
CC(C)CC(NC(=O)OCC1c2ccccc2-c2ccccc21)C(=O)O (stereo in doubt) :: 97.8
O=C(O)c1ccc(S(=O)(=O)N(Cc2ccc(OC(F)(F)F)cc2)c2ncc(C(F)(F)F)cc2Cl)cc1 :: 95.6
Nc1ccc(-c2ccc3ncc4ccc(=O)n(-c5cccc(C(F)(F)F)c5)c4c3c2)cn1 [torin-2] :: 3.4

Q: Which cell viability is listed for C=C(c1ccccc1OCc1cccc(Cl)c1)n1ccnc1 [croconazole] ?
A: 88

Q: # query: cell viability of entry CN1CCN(c2ccc3nc(-c4c(N)c5c(F)cccc5[nH]c4=O)[nH]c3c2)CC1 [dovitinib]
A: 28.8

Q: Name the recorded cell viability for CCC(=O)N1CCN(c2ccc(-n3c(=O)ccc4cnc5ccc(-c6cnc7ccccc7c6)cc5c43)cc2C(F)(F)F)CC1 [torin-1] .
A: 26.3

Q: Item N#Cc1cc(NC(=O)C(=O)O)c(Cl)c(NC(=O)C(=O)O)c1 [lodoxamide] has what recorded cell viability?
A: 93.6

Q: What value of measured cell viability is listed for COc1ccc([C@@H]2CC(=O)c3c(O)cc(O[C@@H]4O[C@H](CO[C@@H]5O[C@@H](C)[C@H](O)[C@@H](O)[C@H]5O)[C@@H](O)[C@H](O)[C@H]4O)cc3O2)cc1O [hesperidin] ?
A: 83.7

Q: # cell viability lookup, item Oc1ccc2c3c1O[C@H]1c4c(c5ccccc5n4Cc4ccccc4)C[C@@]4(O)[C@@H](C2)N(CC2CC2)CC[C@]314 [N-benzylnaltrindole]
A: 54.8

Q: Entry COc1ccc(CNC(=O)Nc2ncc([N+](=O)[O-])s2)cc1 has what cell viability?
A: 30.3

* * *

Items are presented alongside their recorded cell viability.
tested on: U2OS; assay: cell viability relative to DMSO; higher = less toxic; settings: 72 h; 1 nM
Could you give the number and then its unit, please?

CC(C)c1ccc2oc3nc(N)c(C(=O)O)cc3c(=O)c2c1 :: 97.1%
Cc1nc(-c2cccnc2)sc1C(=O)Nc1ccccc1-c1cn2c(CN3CCOCC3)csc2n1 :: 95.5%

Let's switch to this compound now.
Q: Which cell viability is listed for C[C@@H]1COCCN1c1cc(=O)n2c(n1)N(Cc1cncc(Cl)c1)[C@H](C(F)(F)F)CC2 ?
A: 97.4%
